Origin of values: patent US20230365526A1

Provide the reported AC50 of each item.
Tested on: HTT mRNA
Test Details: RT-qPCR splicing assay monitoring HTT canonical (CJ) and alternative (AJ) junction mRNA in A673 or K562 cells
Assay type: cell-based
Reported Conditions: increase in AJ mRNA, 24 hours compound treatment, top dose 10 uM, read-out: HTT AJ AC50

Q. Indicate its recorded AC50; the compound in question is COc1nc(-c2ccc(N(C)C3C[C@H]4CC[C@@H](C3)N4)nn2)ccc1-c1cnn(C)n1 (stereo partly shown)
A. 100 to 1000 nM

Q. Indicate its recorded AC50; the compound in question is "CN(c1ccc(-c2ccc(-c3cn[nH]c3)c(=O)[nH]2)nn1)[C@@H]1C[C@H]2CC[C@@H](C1)N2"
A. 1000 to 10000 nM

Q. Indicate its recorded AC50; the compound in question is "CN(c1ccc(-c2ccc(-c3cn[nH]c3)cn2)nn1)[C@@H]1C[C@H]2CC[C@@H](C1)N2"
A. 100 to 1000 nM

Q. Indicate its recorded AC50; the compound in question is "CCOc1nc(-c2ccc(N(C)[C@@H]3C[C@H]4CC[C@@H](C3)N4)nn2)ccc1-c1cn[nH]c1"
A. < 100 nM

Q. Indicate its recorded AC50; the compound in question is "COc1nc(-c2ccc(N(C)C3CC(C)(C)NC(C)(C)C3)nn2)ccc1-c1cnn(C)n1"
A. 1000 to 10000 nM

Q. Indicate its recorded AC50; the compound in question is "COc1nc(-c2ccc(O[C@@H]3C[C@H]4CC[C@@H](C3)N4)nn2)ccc1-c1cn(C)nn1"
A. > 10000 nM

Q. Indicate its recorded AC50; the compound in question is "COc1nc(-c2ccc(N(C)C3CC(C)(C)NC(C)(C)C3)nn2)ccc1-c1cnn(C)c1"
A. 100 to 1000 nM

====

Provide the reported AC50 of each item.
Test system: HTT mRNA
Test Details: RT-qPCR splicing assay monitoring HTT canonical (CJ) and alternative (AJ) junction mRNA in A673 or K562 cells
Format: cell-based
Reported Conditions: decrease in CJ mRNA, 24 hours compound treatment, top dose 10 uM, read-out: HTT CJ AC50
Structures can show the parent of a compound that is named as a salt.

Q. Give HTT mRNA AC50 for the following compound: "COc1cc(-c2ccc(N(C)[C@@H]3C[C@H]4CC[C@@H](C3)N4)nn2)ccc1-c1cn[nH]c1"
A. 100 to 1000 nM

Q. Give HTT mRNA AC50 for the following compound: COc1nc(-c2ccc(N(C)C3C[C@H]4CC[C@@H](C3)N4)nn2)ccc1-c1cnn(C)n1 (some centres unmarked)
A. 100 to 1000 nM

Q. Give HTT mRNA AC50 for the following compound: "COc1nc(-c2ccc(OC3CC(C)(C)NC(C)(C)C3)nn2)ccc1-c1cn[nH]c1"
A. 100 to 1000 nM

Q. Give HTT mRNA AC50 for the following compound: "COc1nc(-c2ccc(NC3CCNCC3)nn2)ccc1-n1cccn1"
A. > 10000 nM

Q. Give HTT mRNA AC50 for the following compound: "CC(C)Oc1nc(-c2ccc(N(C)[C@@H]3C[C@H]4CC[C@@H](C3)N4)nn2)ccc1-c1cn[nH]c1"
A. < 100 nM

Q. Give HTT mRNA AC50 for the following compound: "COc1nc(-c2ccc(N(C)[C@@H]3C[C@H]4CC[C@@H](C3)N4)nn2)ccc1-c1cn[nH]c1"
A. < 100 nM

Q. Give HTT mRNA AC50 for the following compound: "COc1nc(-c2ccc(N(C)C3CC(C)(C)NC(C)(C)C3)nn2)ccc1-c1cnn(C)n1"
A. 100 to 1000 nM

Q. Give HTT mRNA AC50 for the following compound: "COc1nc(-c2ccc(N(C)C3CC(C)(C)NC(C)(C)C3)nn2)ccc1-n1cccn1"
A. 100 to 1000 nM

Q. Give HTT mRNA AC50 for the following compound: CN(c1ccc(-c2ccc(-c3cn[nH]c3)c(F)n2)nn1)[C@@H]1C[C@H]2CC[C@@H](C1)N2 [Compound 249, hydrochloride]
A. < 100 nM

Q. Give HTT mRNA AC50 for the following compound: "COc1nc(-c2ccc(O[C@@H]3C[C@H]4CC[C@@H](C3)N4)nn2)ccc1-c1cn(C)nn1"
A. 100 to 1000 nM

Q. Give HTT mRNA AC50 for the following compound: "C[C@@H]1C[C@H](N(C)c2ccc(-c3ccc(-c4cn[nH]c4)c(=O)[nH]3)nn2)CCN1"
A. > 10000 nM

====

Provide the reported pIC50 of each item.
System: HTT
Test Details: Gene panel canonical junction RT-qPCR assay: HTT
Type: cell-based
Reported Conditions: read-out: HTT (IC50, decrease in CJ mRNA levels)
pIC50: −log10 of the molar value.

Q. Indicate its recorded pIC50; the compound in question is "COc1nc(-c2ccc(NC3CCNCC3)nn2)ccc1-n1cccn1"
A. < 5.00

Q. Indicate its recorded pIC50; the compound in question is "COc1cc(-c2ccc(N(C)[C@@H]3C[C@H]4CC[C@@H](C3)N4)nn2)ncc1-c1cn[nH]c1"
A. < 5.00

Q. Indicate its recorded pIC50; the compound in question is "COc1nc(-c2ccc(N(C)C3CC(C)(C)NC(C)(C)C3)nn2)ccc1-n1cccn1"
A. 5.00 to 6.00

Q. Indicate its recorded pIC50; the compound in question is "COc1nc(-c2ccc(N(C)[C@@H]3C[C@H]4CC[C@@H](C3)N4)nn2)ncc1-c1cn[nH]c1"
A. 5.00 to 6.00

Q. Indicate its recorded pIC50; the compound in question is "CC(C)Oc1nc(-c2ccc(N(C)[C@@H]3C[C@H]4CC[C@@H](C3)N4)nn2)ccc1-c1cn[nH]c1"
A. > 7.00

Q. Indicate its recorded pIC50; the compound in question is "Cc1nc(-c2ccc(N(C)[C@@H]3C[C@H]4CC[C@@H](C3)N4)nn2)ccc1-c1cn[nH]c1"
A. 5.00 to 6.00

====

Provide the reported AC50 of each item.
Test system: HTT mRNA
Test Details: RT-qPCR splicing assay monitoring HTT canonical (CJ) and alternative (AJ) junction mRNA in A673 or K562 cells
Type: cell-based
Reported Conditions: decrease in CJ mRNA, 24 hours compound treatment, top dose 10 uM, read-out: HTT CJ AC50

Q. Indicate its recorded AC50; the compound in question is COc1nc(-c2ccc(N(C)[C@@H]3C[C@H]4CC[C@@H](C3)N4)nn2)ccc1-n1cccn1 [Compound 134]
A. 100 to 1000 nM

Q. Indicate its recorded AC50; the compound in question is CN(c1ccc(-c2ccc(-c3cn[nH]c3)c(OC3CC3)n2)nn1)[C@@H]1C[C@H]2CC[C@@H](C1)N2 [Compound 286]
A. < 100 nM

Q. Indicate its recorded AC50; the compound in question is CN(c1ccc(-c2ccc(-c3cn[nH]c3)cn2)nn1)[C@@H]1C[C@H]2CC[C@@H](C1)N2 [Compound 217]
A. 100 to 1000 nM

Q. Indicate its recorded AC50; the compound in question is COc1cc(-c2ccc(N(C)[C@@H]3C[C@H]4CC[C@@H](C3)N4)nn2)ncc1-c1cn[nH]c1 [Compound 248]
A. > 10000 nM

Q. Indicate its recorded AC50; the compound in question is COc1nc(-c2ccc(N(C)C3CC(C)(C)NC(C)(C)C3)nn2)ccc1-c1cnn(C)c1 [Compound 247]
A. 100 to 1000 nM

Q. Indicate its recorded AC50; the compound in question is COc1nc(-c2ccc(N(C)C3CC(C)(C)NC(C)(C)C3)nn2)ccc1-c1cn[nH]c1 [Compound 246]
A. < 100 nM

Q. Indicate its recorded AC50; the compound in question is COc1nc(-c2ccc(N(C)[C@H]3CCN[C@@H](C)C3)nn2)ccc1-n1cccn1 [Compound 135]
A. > 10000 nM

Q. Indicate its recorded AC50; the compound in question is COc1nc(-c2ccc(OC3CC(C)(C)NC(C)(C)C3)nn2)ccc1-n1cccn1 [Compound 271]
A. 1000 to 10000 nM
